Recorded IC50 by entry
biological target: UniProtKB Q01959; assay: Radioreceptor assay, inhibition of (3H)WIN 35,428 binding to the dopamine transporter
Sequence (Q01959 whole entry, species assumed): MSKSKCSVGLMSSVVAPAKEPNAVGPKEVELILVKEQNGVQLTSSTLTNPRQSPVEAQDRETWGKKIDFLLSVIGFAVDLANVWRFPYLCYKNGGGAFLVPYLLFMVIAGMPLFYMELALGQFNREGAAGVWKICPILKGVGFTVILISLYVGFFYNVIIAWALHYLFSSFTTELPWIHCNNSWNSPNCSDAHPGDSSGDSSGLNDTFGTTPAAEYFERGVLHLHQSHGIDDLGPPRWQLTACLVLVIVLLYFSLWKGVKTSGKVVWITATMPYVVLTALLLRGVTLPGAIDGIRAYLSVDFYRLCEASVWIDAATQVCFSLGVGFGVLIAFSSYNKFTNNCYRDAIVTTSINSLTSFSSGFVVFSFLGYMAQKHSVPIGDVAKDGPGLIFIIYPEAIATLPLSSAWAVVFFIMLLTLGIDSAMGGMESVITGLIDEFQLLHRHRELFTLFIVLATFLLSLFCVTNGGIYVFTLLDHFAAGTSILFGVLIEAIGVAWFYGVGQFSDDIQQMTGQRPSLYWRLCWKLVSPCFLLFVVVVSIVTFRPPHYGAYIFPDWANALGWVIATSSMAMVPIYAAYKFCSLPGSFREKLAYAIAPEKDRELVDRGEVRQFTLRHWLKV

{"columns": ["compound", "IC50"],
 "data": [
  ["CCCC(C(=O)c1ccc(C)cc1)N1CCCC1 (racemic) [Compound O-2371, 2-Pyrrolidin-1-yl-1-p-tolyl-pentan-1-one]", "8 nM"],
  ["CCCC(C(=O)c1ccc(Cl)c(Cl)c1)N1CCCC1 (stereo not shown) [Compound O-2390]", "8 nM"],
  ["CCCC(C(=O)c1ccc(Br)cc1)N1CCCC1 (stereo not shown) [Compound O-2419]", "8 nM"]
]}

**Query** May I ask what IC50 has been recorded for CCC[C@@H](C(=O)c1ccc(C)cc1)N1CCCC1 [Compound O-2442] ?
**Result** 3 nM
